// values below are reported melting point

* COc1c(C)c(N2CCN(c3ccc4c(c3)OC(F)(F)O4)CC2)c(C)c2c1OC(C)(C)C2 | 149 to 151 °C
* Cc1ccc2c(c1)C(=O)CC2c1ccc(F)cc1 (centres undefined) | 68 to 70 °C

The molecule listed as COC1=CC(C=O)(NC(c2ccccc2)(c2ccccc2)c2ccccc2)NC=C1 (centres undefined) shows melting point equal to 172 °C

melting point reading for CC(=O)C1C(Cl)CC2C3CCC4CC(O)C(Cl)CC4(C)C3C(=O)CC21C (centres undefined) : 192 to 194 °C

Input FC(F)(F)c1cc2ccccc2n1Cc1ccccc1 . Output melting point: 20 °C

Short answer for CC(C)Sc1nc2c(cc1C#N)C(=O)CC(C)(C)C2 : melting point was 135 to 136 °C

###

// reported melting point for each item listed

Below, each entry is followed by its recorded melting point result.
• COc1cccc2c(Nc3ccc(C(=O)NC4CCN(Cc5ccccc5)CC4)cc3)c(C(N)=O)cnc12 = 154 to 162 °C
• CC12C=CC(=O)C=C1C(N=[N+]=[N-])CC1C2CCC2(C)C(=O)CCC12 (stereo unspecified) = 168 to 170 °C
• CCCc1c2nc(C(=O)OCC)cc(C#N)c2cc2c(=O)cc(C(=O)OCC)oc12 = 207 to 209 °C

Lab note: CC(=O)OCc1ccc2oc(=O)c(C(=O)Oc3cc(Cl)ccc3Cl)cc2c1 gave melting point of 168 to 171 °C

// recorded melting point for CC(C)NC(=S)Nc1nc2ccc(OC(F)(F)F)cc2s1 : 242 °C

Item: Cc1[nH]c(=O)n(-c2cc(C(=O)OC(C)C)c(Cl)cc2F)c(=O)c1I | melting point: 211 to 213 °C

The molecule listed as O=Cc1ccc2c(c1)S(=O)(=O)c1ccccc1C=C2 has a reported melting point of 167 to 171 °C

Consider CC(Oc1ccc(Oc2cnc3cc(Cl)ccc3n2)cc1)C(=O)Nc1ccc(OC(F)(F)C(F)F)cc1 (stereo unspecified) . Its measured melting point is 146 to 148 °C

The molecule O=C(O)c1ccc2oc3ncccc3c(=O)c2c1 showed melting point equal to 293 to 294 °C

###

Measured melting point values are reported for all entries that follow.

Recorded melting point, per entry:
- CNC(=O)Oc1ccc(CN2CCN(c3ccc(C(C)=O)cc3)CC2)cc1OC: 120 to 123 °C
- CCCCc1oc2ccccc2c1C(=O)NCc1ccc2c(-c3ccc(OC)cc3)c(OCC#N)ccc2c1: 139 to 142 °C
- CCc1cc(C)c2c(C3CCCCC3)cc(=O)n(CC)c2n1: 79 to 80 °C

Given item Cc1cc(I)cc(C)c1Oc1ccc([N+](=O)[O-])c(Nc2ccc(C#N)cc2)n1 , the value recorded as its melting point is 162 to 165 °C

Entry under test: CN(C)c1ccc(-c2nc(Cl)c(CC#N)n2Cc2ccccc2)cc1Cl . Its melting point was 142 to 143 °C

Lab note: CCOC(=O)C(=CNc1ccc(F)cc1F)C(=O)c1c(F)cc(Cl)c(F)c1Cl gave melting point of 84 to 86 °C

CCCCOc1cc(C=C[N+](=O)[O-])c([N+](=O)[O-])cc1OCc1ccccc1 has a reported melting point of 152 °C

melting point measured on CCCCCCCN1C(=O)C2CC(c3ccc([N+](=O)[O-])cc3)(C2)C1=O = 91 to 92 °C

Recorded result, CC(=O)c1ccccc1Nc1c(Cl)ccc(C)c1Cl , melting point: 130 to 132 °C
